system: SW-620 colon; assay: NCI tumour cell line growth inhibition, 48 h
PROPERTY NAME: TGI

> print(dat)
                                    compound  experimental.result
 1  CCOC(=O)/C(=C\c1c[nH]c2ccccc12)P(=O)(OCC)OCC             > 100 µM
 2  O=C1CC(n2ccnc2)c2c(Cl)sc(Cl)c21 (stereo not given)            > 33.1 µM
 3  COC(=O)C(=O)C(C(=O)OC)C(=O)C(=O)Nc1cc(Cl)c(C)cc1S(=O)(=O)O (stereo not given)             > 100 µM
 4  CN(C)c1n2c3ccc([N+](=O)[O-])cc3n3c(N(C)C)[n+]4ccccc4c3c2c2cccc[n+]12             > 100 µM
 5  Nc1nc(N)c2cc(S(=O)(=O)c3ccc4ccccc4c3)ccc2n1             > 100 µM
 6  CCOC(=O)C(C(=O)OCC)=C1C=C(c2ccccc2)c2ccccc21             > 100 µM
 7  CCN1CCN(Cc2ccc(Nc3ncc(F)c(-c4cc(F)c5nc(C)n(C(C)C)c5c4)n3)nc2)CC1              11.9 µM
 8  CCN1CCN(Cc2ccc(NC(=O)Nc3nc(-c4cc(OC)c(OC)c(OC)c4)cs3)cc2C(F)(F)F)CC1              3.31 µM
 9          Cc1cc(NS(=O)(=O)c2ccc(NO)cc2)no1              82.9 µM
10  CCCCCOC(=O)Nc1nc(=O)n(C2OC(C)C(O)C2O)cc1F (stereo not given)           > 10000 µM

src = PubChem BioAssay (NCI)
